Here, each record is paired with measured protein stability index data.
# Tested on: Saccharomyces cerevisiae
# assay-info: protein stability index of tFT-peptide fusion (C-terminal peptide) (PSI (0-1 scale)); higher = more stable (slower turnover);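 further: PSI is a weighted mean of sequencing reads over stability bins, variants kept only with over 10 reads, mCherry proximal and sfGFP distal, peptide attached via GGGS linker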
# condition-details: genetic background: wild type; temperature: 30 C
// response body must contain only the number

Would you please look over these solved cases?
[
  {
    "primary-sequence": "LSSCPRIMVPIT",
    "numeric-readout": 0.777
  },
  {
    "primary-sequence": "SLLRPPHASFSS",
    "numeric-readout": 0.688
  },
  {
    "primary-sequence": "FELYGVGLGTCA",
    "numeric-readout": 0.633
  },
  {
    "primary-sequence": "PTLSPSPLAPLS",
    "numeric-readout": 0.664
  },
  {
    "primary-sequence": "DSSFLPHLRLAP",
    "numeric-readout": 0.689
  },
  {
    "primary-sequence": "LRPSLPCPPFCP",
    "numeric-readout": 0.641
  },
  {
    "primary-sequence": "VVSLPITGTVTL",
    "numeric-readout": 0.722
  },
  {
    "primary-sequence": "RPSRPPPRLLFA",
    "numeric-readout": 0.644
  },
  {
    "primary-sequence": "PLRYPQLTLPPP",
    "numeric-readout": 0.638
  },
  {
    "primary-sequence": "SWFCSWVVRFFR",
    "numeric-readout": 0.691
  }
]

INPUT: Would you kindly share the measured protein stability index for CWVRGLEYCSIW ?
OUTPUT: 0.676

INPUT: Reported protein stability index for GPSVPPLPRHEL : what is it?
OUTPUT: 0.728

INPUT: Please give the measured protein stability index for this sequence: IMCPVRDSNIFS
OUTPUT: 0.733

INPUT: Recorded protein stability index for WVVLGGRSGCGA , please?
OUTPUT: 0.667

INPUT: Need protein stability index of PHAPTAGPFPLP , thanks.
OUTPUT: 0.783

INPUT: I would be grateful if you could share the reported protein stability index for TGRLDFSIQYYR .
OUTPUT: 0.699

INPUT: Which protein stability index is reported for this sequence? PSSAHLPPPPPP
OUTPUT: 0.673

INPUT: Could you share which protein stability index value was measured for EGGWRYNRNGPN ?
OUTPUT: 0.687

INPUT: Query: protein stability index; subject: RTTNHRLPQPPR
OUTPUT: 0.632

====

# System: Saccharomyces cerevisiae
# assay-info: protein stability index of tFT-peptide fusion (C-terminal peptide) (PSI (0-1 scale)); higher = more stable (slower turnover)
# condition-details: genetic background: wild type; temperature: 37 C
The label depends only on protein stability index: fulfilled if it is at least 0.4, not fulfilled if it is smaller.

[
  {
    "primary-sequence": "VSFFCLICRVYP",
    "label": "fulfilled"
  }
]

INPUT: Tell me whether protein stability index is at least 0.4 here: FERVEYEVLGIG
OUTPUT: fulfilled

INPUT: Does protein stability index meet or surpass 0.4 for WVFYAVRWRTWN ?
OUTPUT: not fulfilled

INPUT: // inclusive: protein stability index at least 0.4? input: RVVNRWGVCFLG
OUTPUT: not fulfilled

INPUT: Could you please find out whether WLYPVFKISYCV has protein stability index that meets 0.4 or exceeds it?
OUTPUT: fulfilled

INPUT: Kindly determine if protein stability index recorded for FFLSFRLFSILL is above or exactly 0.4.
OUTPUT: not fulfilled

INPUT: Check the entry FVVVVVWVSRGL : does protein stability index equal or exceed 0.4?
OUTPUT: not fulfilled

INPUT: Could you tell me if the measured protein stability index of YAFSTCTILIRF reaches 0.4 or more?
OUTPUT: not fulfilled

INPUT: Would you say RRMGLRLFLLWM shows protein stability index at minimum 0.4?
OUTPUT: fulfilled

INPUT: Confirm if protein stability index reported for the sequence YTQKFTFYGLPA is 0.4 or above.
OUTPUT: fulfilled

====

# Tested on: Saccharomyces cerevisiae
# assay-info: protein stability index of tFT-peptide fusion (C-terminal peptide) (PSI (0-1 scale)); higher = more stable (slower turnover)
# condition-details: genetic background: wild type; temperature: 30 C
Reported protein stability index is given for each of the following sequences.
Answer with the value's number alone.

[
  {
    "primary-sequence": "DRWGGRGDYRCI",
    "target-or-system": "Saccharomyces cerevisiae",
    "numeric-readout": 0.72
  },
  {
    "primary-sequence": "SLSRSFCRAHRS",
    "target-or-system": "Saccharomyces cerevisiae",
    "numeric-readout": 0.722
  },
  {
    "primary-sequence": "SPPSFLPLPLPS",
    "target-or-system": "Saccharomyces cerevisiae",
    "numeric-readout": 0.675
  },
  {
    "primary-sequence": "WLVRNVVGGGVC",
    "target-or-system": "Saccharomyces cerevisiae",
    "numeric-readout": 0.722
  },
  {
    "primary-sequence": "FSCLRSINRDVG",
    "target-or-system": "Saccharomyces cerevisiae",
    "numeric-readout": 0.702
  },
  {
    "primary-sequence": "RSNLSKSWHRIG",
    "target-or-system": "Saccharomyces cerevisiae",
    "numeric-readout": 0.207
  },
  {
    "primary-sequence": "SFITFGGWLGGM",
    "target-or-system": "Saccharomyces cerevisiae",
    "numeric-readout": 0.705
  },
  {
    "primary-sequence": "VSGGGEWRDAYG",
    "target-or-system": "Saccharomyces cerevisiae",
    "numeric-readout": 0.677
  }
]

INPUT: Could you tell me which protein stability index is on file for PPLLPRLLTPTP ?
OUTPUT: 0.671

INPUT: So what does the record say about protein stability index for PQRTTPPRRHTA ?
OUTPUT: 0.717

INPUT: Can you look up the measured protein stability index of NFFIQFHNLLFP for me?
OUTPUT: 0.718

INPUT: I am curious: what protein stability index value has been reported for SPPSHPHRPTFP ?
OUTPUT: 0.753

INPUT: Quick one: protein stability index for VGVLSYYTCYEL ?
OUTPUT: 0.689

INPUT: Fill in the blank: the reported protein stability index of GWVVVVCGVCCG is ____.
OUTPUT: 0.285

INPUT: Bench note: what protein stability index did PPPPPPATPPPS show?
OUTPUT: 0.681

====

# Tested on: Saccharomyces cerevisiae
# assay-info: protein stability index of tFT-peptide fusion (C-terminal peptide) (PSI (0-1 scale)); higher = more stable (slower turnover)
# condition-details: genetic background: wild type; temperature: 37 C
measured-attribute: protein stability index
Please respond with just the number, no unit label.

These recorded examples may help you get a feel for the data.
[
  {
    "primary-sequence": "FVVVGLGLLCLA",
    "protein stability index": 0.491
  },
  {
    "primary-sequence": "VFSLFLVLNYPF",
    "protein stability index": 0.432
  }
]

In the following, a different sequence is considered.
INPUT: Could you share what protein stability index was measured for SFLCILIFPFFP , tested on Saccharomyces cerevisiae?
OUTPUT: 0.562

====

Recorded protein stability index for the following sequences
# System: Saccharomyces cerevisiae
# assay-info: protein stability index of tFT-peptide fusion (C-terminal peptide) (PSI (0-1 scale)); higher = more stable (slower turnover)
# condition-details: genetic background: cdc34-1; temperature: 37 C
Reply with the value as a number alone.

The following sequences have reported results that may help.
[
  {
    "primary-sequence": "GLYFFVVRIFKV",
    "protein stability index": 0.219
  },
  {
    "primary-sequence": "SRVCVLTGISCA",
    "protein stability index": 0.568
  },
  {
    "primary-sequence": "VMLFYVGSGVVS",
    "protein stability index": 0.654
  },
  {
    "primary-sequence": "FELSVSVFQSVV",
    "protein stability index": 0.318
  },
  {
    "primary-sequence": "GLLLLGIRLKWG",
    "protein stability index": 0.139
  }
]

INPUT: Lab note: need protein stability index with Saccharomyces cerevisiae for entry FLYSVLLICKFI , please look it up.
OUTPUT: 0.214

INPUT: Could you share what protein stability index was measured for PPSRSPLPPLLH , tested on Saccharomyces cerevisiae?
OUTPUT: 0.657

INPUT: Record RLPRILVLVCLF : what is its protein stability index with Saccharomyces cerevisiae?
OUTPUT: 0.231

INPUT: Find the measured protein stability index: item GELPGELYKFWL , target or system Saccharomyces cerevisiae.
OUTPUT: 0.769

INPUT: Lab note: need protein stability index with Saccharomyces cerevisiae for entry NMVSMVVVIFGV , please look it up.
OUTPUT: 0.248

INPUT: For the record PSSVKLRVPSLY , what value of protein stability index is listed for Saccharomyces cerevisiae?
OUTPUT: 0.672
